Data origin: the supplement of paper PMC11246515

Entries and their total protein half-life in vivo
Test: total protein half-life in vivo (active degradation + dilution); higher = more stable protein
Details: wild type E. coli NCM3722; growth: C-lim chemostat; doubling time 12 h
Express it in h; write the number only.

{"columns": ["Construct Sequence", "total protein half-life in vivo / h"],
 "data": [
  ["MRYPVDVYTGKIQAYPEGKPSAIAKIQVDGELMLTELGLEGDEQAEKKVHGGPDRALCHYPREHYLYWAREFPEQAELFVAPAFGENLSTDGLTESNVYMGDIFRWGEALIQVSQPRSPCYKLNYHFDISDIAQLMQNTGKVGWLYSVIAPGKVSADAPLELVSRVSDVTVQEAAAIAWHMPFDDDQYHRLLSAAGLSKSWTRTMQKRRLSGKIEDFSRRLWGK", 9.06]
]}

Continue with the sequence presented below.
Short answer for `MANWQSIDELQDIASDLPRFIHALDELSRRLGLNITPLTADHISLRCHQNATAERWRRGFEQCGELLSENMINGRPICLFKLHEPVQVAHWQFSIVELPWPGEKRYPHEGWEHIEIVLPGDPETLNARALALLSDEGLSLPGISVKTSSPKGEHERLPNPTLAVTDGKTTIKFHPWSIEEIVASEQSA` : total protein half-life in vivo was 5.25

---

Assay: total protein half-life in vivo (active degradation + dilution); higher = more stable protein
Settings: wild type E. coli NCM3722; growth: N-lim chemostat; doubling time 6 h
Entries and their total protein half-life in vivo
Express it in h; write the number only.

{"columns": ["Construct Sequence", "Observation Type", "Reported"],
 "data": [
  ["MDLQHWQAQFENWLKNHHQHQDAAHDVCHFRRVWATAQKLAADDDVDMLVILTACYFHDIVSLAKNHPQRQRSSILAAEETRRLLREEFEQFPAEKIEAVCHAIAAHSFSAQIAPLTTEAKIVQDADRLEALGAIGLARVFAVSGALGVALFDGEDPFAQHRPLDDKRYALDHFQTKLLKLPQTMQTARGKQLAQHNAHFLVEFMAKLSAELAGENEGVDHKVIDAFSSAG", "total protein half-life in vivo", 2.29],
  ["MKQTQRHNGIIELVKQQGYVSTEELVEHFSVSPQTIRRDLNELAEQNLILRHHGGAALPSSSVNTPWHDRKATQTEEKERIARKVAEQIPNGSTLFIDIGTTPEAVAHALLNHSNLRIVTNNLNVANTLMVKEDFRIILAGGELRSRDGGIIGEATLDFISQFRLDFGILGISGIDSDGSLLEFDYHEVRTKRAIIENSRHVMLVVDHSKFGRNAMVNMGSISMVDAVYTDAPPPVSVMQVLTDHHIQLELC [P0ACL0]", "total protein half-life in vivo", 5.84],
  ["MHVKYLAGIVGAALLMAGCSSSNELSAAGQSVRIVDEQPGAECQLIGTATGKQSNWLSGQHGEEGGSMRGAANDLRNQAAAMGGNVIYGISSPSQGMLSSFVPTDSQIIGQVYKCPN [P0AF70]", "total protein half-life in vivo", 7.12]
]}

Continue with the sequence presented below.
Short answer for `MRVLVVEDNALLRHHLKVQIQDAGHQVDDAEDAKEADYYLNEHIPDIAIVDLGLPDEDGLSLIRRWRSNDVSLPILVLTARESWQDKVEVLSAGADDYVTKPFHIEEVMARMQALMRRNSGLASQVISLPPFQVDLSRRELSINDEVIKLTAFEYTIMETLIRNNGKVVSKDSLMLQLYPDAELRESHTIDVLMGRLRKKIQAQYPQEVITTVRGQGYLFELR` : total protein half-life in vivo was 4.33

---

Assay: total protein half-life in vivo (active degradation + dilution); higher = more stable protein
Conditions: E. coli NCM3722 delta-smpB; growth: N-lim chemostat; doubling time 6 h
Observation Type: total protein half-life in vivo (h)
Express it in h; write the number only.

Known total protein half-life in vivo results, listed for orientation:
{"columns": ["Construct Sequence", "Reported"],
 "data": [
  ["MKKRVYLIAAVVSGALAVSGCTTNPYTGEREAGKSAIGAGLGSLVGAGIGALSSSKKDRGKGALIGAAAGAALGGGVGYYMDVQEAKLRDKMRGTGVSVTRSGDNIILNMPNNVTFDSSSATLKPAGANTLTGVAMVLKEYPKTAVNVIGYTDSTGGHDLNMRLSQQRADSVASALITQGVDASRIRTQGLGPANPIASNSTAEGKAQNRRVEITLSPL", 5.3],
  ["MKKYLALALIAPLLISCSTTKKGDTYNEAWVKDTNGFDILMGQFAHNIENIWGFKEVVIAGPKDYVKYTDQYQTRSHINFDDGTITIETIAGTEPAAHLRRAIIKTLLMGDDPSSVDLYSDVDDITISKEPFLYGQVVDNTGQPIRWEGRASNFADYLLKNRLKSRSNGLRIIYSVTINMVPNHLDKRAHKYLGMVRQASRKYGVDESLILAIMQTESSFNPYAVSRSDALGLMQVVQHTAGKDVFRSQGKSGTPSRSFLFDPASNIDTGTAYLAMLNNVYLGGIDNPTSRRYAVITAYNGGAGSVLRVFSNDKIQAANIINTMTPGDVYQTLTTRHPSAESRRYLYKVNTAQKSYRRR [P0C066]", 4.92],
  ["MYERYAGLIFDMDGTILDTEPTHRKAWREVLGHYGLQYDIQAMIALNGSPTWRIAQAIIELNQADLDPHALAREKTEAVRSMLLDSVEPLPLVDVVKSWHGRRPMAVGTGSESAIAEALLAHLGLRHYFDAVVAADHVKHHKPAPDTFLLCAQRMGVQPTQCVVFEDADFGIQAARAAGMDAVDVRLL", 1.29],
  ["MLYVIYAQDKADSLEKRLSVRPAHLARLQLLHDEGRLLTAGPMPAVDSNDPGAAGFTGSTVIAEFESLEAAQAWADADPYVAAGVYEHVSVKPFKKVF [P0AB55]", 5.34],
  ["MTHDNKLQVEAIKRGTVIDHIPAQIGFKLLSLFKLTETDQRITIGLNLPSGEMGRKDLIKIENTFLSEDQVDQLALYAPQATVNRIDNYEVVGKSRPSLPERIDNVLVCPNSNCISHAEPVSSSFAVRKRANDIALKCKYCEKEFSHNVVLAN [P0A7F3]", 5.09]
]}

Continue with the sequence presented below.
Short answer for MKQLWFAMSLVTGSLLFSANASATPASGALLQQMNLASQSLNYELSFISINKQGVESLRYRHARLDNRPLAQLLQMDGPRREVVQRGNEISYFEPGLEPFTLNGDYIVDSLPSLIYTDFKRLSPYYDFISVGRTRIADRLCEVIRVVARDGTRYSYIVWMDTESKLPMRVDLLDRDGETLEQFRVIAFNVNQDISSSMQTLAKANLPPLLSVPVGEKAKFSWTPTWLPQGFSEVSSSRRPLPTMDNMPIESRLYSDGLFSFSVNVNRATPSSTDQMLRTGRRTVSTSVRDNAEITIVGELPPQTAKRIAENIKFGAAQ [P0AFX9] : total protein half-life in vivo was 5.8

---

Assay: total protein half-life in vivo (active degradation + dilution); higher = more stable protein
Details: wild type E. coli NCM3722; growth: P-lim chemostat; doubling time 6 h
Record criterion met whenever total protein half-life in vivo is at 6 h or higher; record criterion not met when lower.

Previously resolved entries follow.
{"columns": ["Construct Sequence", "Class Label"],
 "data": [
  ["MAKLTLQEQLLKAGLVTSKKAAKVERTAKKSRVQAREARAAVEENKKAQLERDKQLSEQQKQAALAKEYKAQVKQLIEMNRITIANGDIGFNFTDGNLIKKIFVDKLTQAQLINGRLAIARLLVDNNSEGEYAIIPASVADKIAQRDASSIVLHSALSAEEQDEDDPYADFKVPDDLMW", "criterion not met"],
  ["MGQRIPVTLGNIAPLSLRPFQPGRIALVCEGGGQRGIFTAGVLDEFMRAQFNPFDLYLGTSAGAQNLSAFICNQPGYARKVIMRYTTKREFFDPLRFVRGGNLIDLDWLVEATASQMPLQMDTAARLFDSGKSFYMCACRQDDYAPNYFLPTKQNWLDVIRASSAIPGFYRSGVSLEGINYLDGGISDAIPVKEAARQGAKTLVVIRTVPSQMYYTPQWFKRMERWLGDSSLQPLVNLVQHHETSYRDIQQFIEKPPGKLRIFEIYPPKPLHSIALGSRIPALREDYKLGRLCGRYFLATVGKLLTEKAPLTRHLVPVVTPESIVIPPAPVANDTLVAEVSDAPQANDPTFNNEDLA", "criterion not met"],
  ["MTQPMPGKPAEDAENELDIRGLFRTLWAGKLWIIGMGLAFALIALAYTFFARQEWSSTAITDRPTVNMLGGYYSQQQFLRNLDVRSNMASADQPSVMDEAYKEFVMQLASWDTRREFWLQTDYYKQRMVGNSKADAALLDEMINNIQFIPGDFTRAVNDSVKLIAETAPDANNLLRQYVAFASQRAASHLNDELKGAWAARTIQMKAQVKRQEEVAKAIYDRRMNSIEQALKIAEQHNISRSATDVPAEELPDSEMFLLGRPMLQARLENLQAVGPAFDLDYDQNRAMLNTLNVGPTLDPRFQTYRYLRTPEEPVKRDSPRRAFLMIMWGIVGGLIGAGVALTRRCSK [P0AG00]", "criterion met"],
  ["MIDYEVLRFIWWLLVGVLLIGFAVTDGFDMGVGMLTRFLGRNDTERRIMINSIAPHWDGNQVWLITAGGALFAAWPMVYAAAFSGFYVAMILVLASLFFRPVGFDYRSKIEETRWRNMWDWGIFIGSFVPPLVIGVAFGNLLQGVPFNVDEYLRLYYTGNFFQLLNPFGLLAGVVSVGMIITQGATYLQMRTVGELHLRTRATAQVAALVTLVCFALAGVWVMYGIDGYVVKSTMDHYAASNPLNKEVVREAGAWLVNFNNTPILWAIPALGVVLPLLTILTARMDKAAWAFVFSSLTLACIILTAGIAMFPFVMPSSTMMNASLTMWDATSSQLTLNVMTWVAVVLVPIILLYTAWCYWKMFGRITKEDIERNTHSLY [P0ABK2]", "criterion met"]
]}

Proceed to the following item.
Does MRKIALILAMLLIPCVSFAGLLGSSSSTTPVSKEYKQQLMGSPVYIQIFKEERTLDLYVKMGEQYQLLDSYKICKYSGGLGPKQRQGDFKSPEGFYSVQRNQLKPDSRYYKAINIGFPNAYDRAHGYEGKYLMIHGDCVSIGCYAMTNQGIDEIFQFVTGALVFGQPSVQVSIYPFRMTDANMKRHKYSNFKDFWEQLKPGYDYFEQTRKPPTVSVVNGRYVVSKPLSHEVVQPQLASNYTLPEAK [P0AA99] have a reported total protein half-life in vivo of at least 6 h?
criterion not met
